I'd be grateful if you could share measured protein stability index for these entries.
B1: PPP2R2B (parent)
chain: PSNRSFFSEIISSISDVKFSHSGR

Variants of: B1
test: protein stability index of a GFP-peptide fusion (GPS, HEK-293T) (PSI 1-6); higher = more stable;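 note: lentivirally expressed fusions sorted by FACS into six bins by GFP to DsRed ratio, PSI derived from sequencing read proportions per bin multiplied by bin number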
details: c terminus: a fixed tail appended
Numbers only.

{"chainSequence": "PSNRSFFSEIISSISDVDFSHSGR", "protein stability index": 2.59}

Report protein stability index for every entry below.
1. PSNRSFFSEIISSISDVKFSHSNR
2. PSNRSFFSEGISSISDVKFSHSGR
3. PSNRSFFSEIISSRSDVKFSHSGR
4. PSNRSFFSEIISSISDVKFSRSGR

Result:
1. 2.79
2. 3.39
3. 3.05
4. 3.27

I'm hoping you can list protein stability index for every variant here, please.
1. PSNRSFFSEIISSIEDVKFSHSGR
2. PSNRSFFSEIISSISDVKFSHSGP
3. PSNRSFFSEIISSIMDVKFSHSGR
4. PVNRSFFSEIISSISDVKFSHSGR
5. RSNRSFFSEIISSISDVKFSHSGR
6. PSNRSFFSEIISSISDVKFVHSGR
7. MSNRSFFSEIISSISDVKFSHSGR
8. PSNRSFFSEIISSISDVKFSVSGR

Result:
2.93
2.31
2.08
2.29
2.34
2.33
2.24
2.04

Consider the following items and state reported protein stability index for each.
1. PSNRSFFKEIISSISDVKFSHSGR
2. PSNRSFFSEIISSIHDVKFSHSGR
3. PSNRSFFSTIISSISDVKFSHSGR
4. PSNRSFFSEIISQISDVKFSHSGR

Result:
[2.36, 2.39, 2.17, 2.82]

For each listed entry, give its protein stability index.
1. ESNRSFFSEIISSISDVKFSHSGR
2. PSNRSFFLEIISSISDVKFSHSGR
3. PSNRSFFSYIISSISDVKFSHSGR
4. PSNRSFFSEIISSISDVKFSLSGR
5. PSNRSFFSEIISSISDEKFSHSGR
6. PSNRSFFSEIISSISDVFFSHSGR

Result:
1. 2.42
2. 2.04
3. 1.95
4. 2.03
5. 3.05
6. 2.17

Please report protein stability index for every entry that follows.
1. PSNRSFLSEIISSISDVKFSHSGR
2. NSNRSFFSEIISSISDVKFSHSGR

Result:
[2.25, 2.42]

Okay, here is my list. What is protein stability index for each of these?
1. PSNRSFFSEIISSISDVKFSHSGQ
2. PSNRSFFYEIISSISDVKFSHSGR
3. PSNRSFFSEIISNISDVKFSHSGR
4. PSSRSFFSEIISSISDVKFSHSGR
5. PSNRSFFSEIISSIYDVKFSHSGR

Result:
2.39
1.91
2.79
2.57
2.05

Provide each entry's protein stability index from the list below.
1. PSNRSFFSEIIYSISDVKFSHSGR
2. PSNRSFFSEIISSISDVKRSHSGR
3. PSNRSFFSEIISSISDVKFHHSGR
4. PSNRSYFSEIISSISDVKFSHSGR

Result:
1: 2.3; 2: 2.99; 3: 2.18; 4: 2.52

The following variants each have a reported value; give each one's protein stability index.
1. PSNRSFFPEIISSISDVKFSHSGR
2. PSNRSFFSEIISSISDVKFSHWGR
3. PSNRSFFSEIISSISCVKFSHSGR
4. PRNRSFFSEIISSISDVKFSHSGR

Result:
1: 2.69; 2: 1.9; 3: 1.92; 4: 2.61
